# target.or.test.system: D(2) dopamine receptor (Mus musculus) (UniProt P61168)
# Sequence (P61168 whole entry): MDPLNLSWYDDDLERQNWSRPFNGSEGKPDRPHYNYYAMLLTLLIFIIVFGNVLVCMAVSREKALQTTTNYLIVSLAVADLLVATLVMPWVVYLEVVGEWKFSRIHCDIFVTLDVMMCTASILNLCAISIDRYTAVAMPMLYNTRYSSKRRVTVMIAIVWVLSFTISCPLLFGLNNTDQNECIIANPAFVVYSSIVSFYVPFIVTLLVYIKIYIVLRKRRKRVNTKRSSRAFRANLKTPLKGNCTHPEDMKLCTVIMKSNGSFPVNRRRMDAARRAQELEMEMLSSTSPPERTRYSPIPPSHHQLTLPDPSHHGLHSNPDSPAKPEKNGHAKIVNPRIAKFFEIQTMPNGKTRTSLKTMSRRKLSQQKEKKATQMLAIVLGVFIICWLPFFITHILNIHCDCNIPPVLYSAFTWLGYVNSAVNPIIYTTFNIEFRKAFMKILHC
# procedure.details: Tested in vivo for methyl phenidate-induced gnawing behavior antagonistic activity against dopamine D2 receptor in mice
# Assay type: functional, organism-based
Kindly supply the reported ED50 values for the records listed here.

## Input Find the recorded ED50 belonging to O=C1NCCN1CCN1CCC(c2cn(-c3ccc(F)cc3)c3ccc(Cl)cc23)CC1 and report it.
## Output > 180 µmol/kg

## Input Name the reported ED50 value associated with the molecule O=C1NCCN1CCCCCN1CCC(c2cn(-c3ccc(F)cc3)c3ccc(Cl)cc23)CC1
## Output 14 µmol/kg

## Input Name the reported ED50 value associated with the molecule CN1CC=C(c2cn(-c3ccc(F)cc3)c3ccc(F)cc23)CC1
## Output 0.44 µmol/kg

## Input Requested field: ED50. Item: OCCN1CCC(c2cn(-c3ccc(F)cc3)c3ccc(Cl)cc23)CC1
## Output 1.5 µmol/kg

## Input Which ED50 value belongs to CN1CCN(c2cn(-c3ccc(F)cc3)c3ccc(Cl)cc23)CC1 ?
## Output 0.12 µmol/kg

## Input # query: ED50 of entry CN1CC=C(c2cn(-c3ccc(F)cc3)c3ccc(Cl)cc23)CC1
## Output 0.085 µmol/kg

## Input Recorded ED50 of CN1CC=C(c2cn(-c3ccc(F)cc3)c3ccc([N+](=O)[O-])cc23)CC1 , please.
## Output 0.022 µmol/kg

## Input Requested read-out: ED50. Entry: O=C1NCCN1CCN1CCC(c2cn(-c3ccc(F)cc3)c3ccc(F)cc23)CC1
## Output > 78 µmol/kg

## Input Query (molecule): O=C1NCCN1CCN1CCC(c2cn(-c3ccc(F)cc3)c3ccccc23)CC1 ; field requested: ED50
## Output > 98 µmol/kg

## Input Recorded ED50 of Fc1ccc(-n2cc(C3=CCNCC3)c3cc(C(F)(F)F)ccc32)cc1 , please.
## Output 2.1 µmol/kg

----------
# target.or.test.system: Serotonin 2 (5-HT2) receptor (Rattus norvegicus, UniProt P30994+P08909+P14842)
# procedure.details: Inhibition of [3H]ketanserin binding to rat 5-hydroxytryptamine 2 receptors.
# Format: protein assay
attribute.measured: IC50
Please state the number and follow it with the unit.

## Input Which value of IC50 has been reported for CS(=O)(=O)c1ccc2c(c1)c(C1CCN(CCN3CCNC3=O)CC1)cn2-c1ccc(F)cc1 in the records?
## Output 8 nM

## Input Sample N#Cc1ccc2c(c1)c(C1CCN(CCN3CCNC3=O)CC1)cn2-c1ccc(F)cc1 — what was its IC50?
## Output 1.3 nM

## Input Looking for the measured IC50 of N#Cc1ccc2c(c1)c(C1=CCN(CCN3CCNC3=O)CC1)cn2-c1ccc(F)cc1 , can you help?
## Output 3.2 nM

## Input Recorded IC50 of Fc1ccc(-n2cc(C3CCNCC3)c3cc(Cl)ccc32)cc1 , please.
## Output 3.8 nM

----------
Provide the reported ED50 of each item.
# target.or.test.system: D(2) dopamine receptor (Mus musculus) (UniProt P61168)
# procedure.details: Tested in vivo for methyl phenidate-induced gnawing behavior antagonistic activity against dopamine D2 receptor in mice
# Format: functional, organism-based

## Input Suppose we examine the molecule O=C1NCCN1CCN1CCC(c2cn(-c3ccc(F)cc3)c3ccc(Br)cc23)CC1 ; what ED50 value has been reported?
## Output > 82 µmol/kg

## Input For the molecule COc1ccc2c(c1)c(C1CCN(CCN3CCNC3=O)CC1)cn2-c1ccc(F)cc1 , what ED50 is on record?
## Output > 76 µmol/kg

## Input What ED50 value was documented for this molecule, CC(C)N1CCN(CCN2CCC(c3cn(-c4ccc(F)cc4)c4ccc(Cl)cc34)CC2)C1=O ?
## Output > 69 µmol/kg

## Input What value of ED50 has been reported for the following molecule? O=C1NCCN1CCCCN1CCC(c2cn(-c3ccc(F)cc3)c3ccc(Cl)cc23)CC1
## Output > 72 µmol/kg

## Input Request the reported ED50 associated with CS(=O)(=O)c1ccc2c(c1)c(C1CCN(CCN3CCNC3=O)CC1)cn2-c1ccc(F)cc1
## Output > 67 µmol/kg

Ref: ChEMBL document CHEMBL1125407
